assayed_system: Integrin alpha-IIb/beta-3 (Homo sapiens, UniProt P05106+P08514)
Sequence (P05106 27-788 limits assumed): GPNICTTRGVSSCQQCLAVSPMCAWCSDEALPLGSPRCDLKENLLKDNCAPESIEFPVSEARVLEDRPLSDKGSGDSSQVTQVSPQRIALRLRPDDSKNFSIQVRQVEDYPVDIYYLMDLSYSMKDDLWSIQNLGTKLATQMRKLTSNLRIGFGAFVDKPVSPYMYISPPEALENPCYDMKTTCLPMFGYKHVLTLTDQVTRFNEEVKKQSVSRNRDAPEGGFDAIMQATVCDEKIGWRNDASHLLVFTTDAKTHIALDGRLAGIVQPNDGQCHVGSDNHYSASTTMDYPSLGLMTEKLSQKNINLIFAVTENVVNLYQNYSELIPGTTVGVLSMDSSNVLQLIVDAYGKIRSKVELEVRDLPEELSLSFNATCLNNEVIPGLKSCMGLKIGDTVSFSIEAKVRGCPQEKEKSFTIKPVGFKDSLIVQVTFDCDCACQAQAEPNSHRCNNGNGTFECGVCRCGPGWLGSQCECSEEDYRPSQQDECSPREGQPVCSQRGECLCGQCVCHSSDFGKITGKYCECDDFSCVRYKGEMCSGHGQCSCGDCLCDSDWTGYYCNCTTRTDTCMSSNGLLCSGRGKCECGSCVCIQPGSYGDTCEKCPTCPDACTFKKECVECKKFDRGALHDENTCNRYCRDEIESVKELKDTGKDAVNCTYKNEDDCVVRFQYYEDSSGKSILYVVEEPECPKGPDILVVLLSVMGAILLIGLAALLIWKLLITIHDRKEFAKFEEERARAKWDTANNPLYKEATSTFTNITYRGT
Sequence (P08514 32-887 limits assumed): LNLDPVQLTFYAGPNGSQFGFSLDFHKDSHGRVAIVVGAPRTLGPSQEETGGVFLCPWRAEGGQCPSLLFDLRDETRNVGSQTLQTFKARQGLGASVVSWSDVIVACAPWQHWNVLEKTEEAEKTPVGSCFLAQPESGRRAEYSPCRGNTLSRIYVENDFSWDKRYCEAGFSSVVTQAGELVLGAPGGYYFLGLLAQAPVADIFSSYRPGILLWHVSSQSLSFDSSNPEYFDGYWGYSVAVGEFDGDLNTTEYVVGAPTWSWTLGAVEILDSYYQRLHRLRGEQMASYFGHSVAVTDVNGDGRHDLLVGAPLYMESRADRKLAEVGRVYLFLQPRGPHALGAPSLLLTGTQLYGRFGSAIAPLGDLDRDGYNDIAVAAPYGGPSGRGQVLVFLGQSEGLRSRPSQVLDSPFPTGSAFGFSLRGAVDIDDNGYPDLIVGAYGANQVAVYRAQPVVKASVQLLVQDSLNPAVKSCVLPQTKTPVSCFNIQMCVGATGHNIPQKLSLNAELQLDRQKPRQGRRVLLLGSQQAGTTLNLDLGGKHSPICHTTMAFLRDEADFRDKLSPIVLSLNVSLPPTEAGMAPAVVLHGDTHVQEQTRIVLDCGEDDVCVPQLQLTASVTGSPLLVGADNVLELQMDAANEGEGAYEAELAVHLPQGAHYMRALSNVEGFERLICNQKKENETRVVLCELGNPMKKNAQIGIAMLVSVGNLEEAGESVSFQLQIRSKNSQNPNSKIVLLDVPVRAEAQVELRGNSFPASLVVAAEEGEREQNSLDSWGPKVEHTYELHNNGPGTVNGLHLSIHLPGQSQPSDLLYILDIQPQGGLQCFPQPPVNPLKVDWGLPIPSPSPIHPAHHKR
Sequence (P08514 891-1039 limits assumed): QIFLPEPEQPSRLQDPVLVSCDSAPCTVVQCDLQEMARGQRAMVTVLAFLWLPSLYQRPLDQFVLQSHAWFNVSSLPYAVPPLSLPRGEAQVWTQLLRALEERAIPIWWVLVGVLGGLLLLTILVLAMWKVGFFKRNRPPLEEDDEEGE
assay_info: Inhibition of fibrinogen binding to purified Human alphaIIb-beta3 integrin in ELISA with 0.1% bovine serum albumin (BSA)
Type: protein-complex assay
measure_name: IC50 (nM)

{"compound": "CCOCCCC(CC(=O)O)N1CCc2cc(OCc3ccc(C(=N)N)cc3)ccc2C1=O (stereo not drawn)", "unit_abbreviation": "nM", "IC50": 61}

[a] CCCCCC(CC(=O)O)N1CCc2cc(OCc3ccc(C(=N)N)cc3)ccc2C1=O (stereo not drawn)
[b] CCCCCCC(CC(=O)O)N1CCc2cc(OCc3ccc(C(=N)N)cc3)ccc2C1=O (stereo not drawn)
Data request: Of the two listed items, a and b , which carries the larger IC50 figure? Your answer should be the label attached to the chosen record.
Data returned: b
(b: 41 nM, a: 24 nM)
